- MEASUREMENT NOTES: Phase 1 clinical trial: plasma pharmacokinetics
- Type: in vivo, human
- CONDITION LABEL: human, plasma, oral, 120 mg, Cycle 2 Day 1; 120 mg, QD; cut-off April 2023; read-out: AUC0-24 (geometric mean)
MEASUREMENT KIND: AUC(0-t) (ng·h/mL)
Return type: number; implicit unit ng·h/mL.

Input: Note AUC(0-t) for the compound shown: CC1(C)Oc2cc(Cl)ccc2[C@@H]2OCC3(CCN(CCn4ccnc4)CC3)C[C@H]21 [Compound 1]
Output: 2420

====

- MEASUREMENT NOTES: Phase 1 clinical trial: plasma pharmacokinetics
- Assay type: in vivo, human
- CONDITION LABEL: human, plasma, oral, 80 mg, Cycle 1 Day 1; 80 mg, QD; cut-off April 2023; read-out: Cmax (geometric mean)
MEASUREMENT KIND: Cmax (ng/mL)
Return type: number; implicit unit ng/mL.

Input: Note Cmax for the compound shown: `CC1(C)Oc2cc(Cl)ccc2[C@@H]2OCC3(CCN(CCn4ccnc4)CC3)C[C@H]21`
Output: 13
